# System: 782815-120-R-J1-PDC complex spheroid viability
# ASSAY PROTOCOL: Anticancer human tumor 782815-120-R-J1-PDC patient-derived colon adenocarcinoma cell line growth inhibition [RAS]
# ASSAY SETUP: curve of first compound; second compound 0.01 µM
# Text: RAS pathway inhibitors in Combinations in Complex Spheroids A high-throughput screen of multi-cell type tumor spheroids was designed to identify active combinations of RAS pathway inhibitors and targeted small molecules. Complex spheroids include a stromal component modeled by human endothelial cells (HUVEC) and fibroblasts modeled by human mesenchymal stem cells (MSCs). […] Compounds. […] If the clinical Cmax for an agent had not been determined, the highest concentration tested was 10 microM. […]
pIC50: −log10 of the molar value.
OBSERVATION TYPE: pIC50

Consider the worked cases shown below.
Lab note: measured pIC50 of CCN1CCN(Cc2ccc(Nc3ncc(F)c(-c4cc(F)c5nc(C)n(C(C)C)c5c4)n3)nc2)CC1 + C=CC(=O)N1CCN(c2nc(OCC3CCCN3C)nc3c(F)c(-c4nc(N)cc(C)c4C(F)(F)F)c(Cl)cc23)C(C)C1 was < 6.00

GET /value?item= CC1(O)CCCC1n1c(=O)c(C(F)F)cc2cnc(NC3CCN(S(C)(=O)=O)CC3)nc21 (stereo not drawn) + C=CC(=O)N1CCN(c2nc(OCC3CCCN3C)nc3c(F)c(-c4nc(N)cc(C)c4C(F)(F)F)c(Cl)cc23)C(C)C1 &field=pIC50 returns 5.63

Kindly consider the entry below.
The recorded pIC50 for entry CC(C)NCC(C(=O)N1CCN(c2ncnc3c2C(C)CC3O)CC1)c1ccc(Cl)cc1 (stereo not drawn) + C=CC(=O)N1CCN(c2nc(OCC3CCCN3C)nc3c(F)c(-c4nc(N)cc(C)c4C(F)(F)F)c(Cl)cc23)C(C)C1 equals < 5.00

====

# Tested on: 782815-120-R-J1-PDC complex spheroid viability
# ASSAY PROTOCOL: Anticancer human tumor 782815-120-R-J1-PDC cell line growth inhibition [RAS];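 further: spheroids exposed to compounds for 7 days before reading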;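 on viability, T/C: 100% = DMSO vehicle control viability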
# ASSAY SETUP: second compound 0.01 µM; first compound 0.316 µM; stronger effect = lower value
# Text: RAS pathway inhibitors in Combinations in Complex Spheroids A high-throughput screen of multi-cell type tumor spheroids was designed to identify active combinations of RAS pathway inhibitors and targeted small molecules. Complex spheroids include a stromal component modeled by human endothelial cells (HUVEC) and fibroblasts modeled by human mesenchymal stem cells (MSCs). […] Compounds. […] If the clinical Cmax for an agent had not been determined, the highest concentration tested was 10 microM. […]
OBSERVATION TYPE: viability, T/C (%)
# number only, unit % dropped from output

Guide cases for viability, T/C, answers given:
The reported value for NC1c2ccccc2OC12CCN(c1cnc3c(N4CCCc5ncccc54)n[nH]c3n1)CC2 (configuration not stated) + C=CC(=O)N1CCN(c2nc(OCC3CCCN3C)nc3c(F)c(-c4nc(N)cc(C)c4C(F)(F)F)c(Cl)cc23)C(C)C1 in terms of viability, T/C is 89

The compound Cc1nc(N2CCC3(CC2)COC(C)C3N)c(CO)nc1Sc1ccnc(N)c1Cl (configuration not stated) + C=CC(=O)N1CCN(c2nc(OCC3CCCN3C)nc3c(F)c(-c4nc(N)cc(C)c4C(F)(F)F)c(Cl)cc23)C(C)C1 showed viability, T/C equal to 96.2

# compound O=C(c1ccc(F)c(F)c1Nc1ccc(I)cc1F)N1CC(O)([C@@H]2CCCCN2)C1 + C=CC(=O)N1CCN(c2nc(OCC3CCCN3C)nc3c(F)c(-c4nc(N)cc(C)c4C(F)(F)F)c(Cl)cc23)C(C)C1 ; its viability, T/C = 21.7

Per the records, this compound ( CCC(CC)c1cc(NC2CCC(N)C2)n2nccc2n1 (configuration not stated) + C=CC(=O)N1CCN(c2nc(OCC3CCCN3C)nc3c(F)c(-c4nc(N)cc(C)c4C(F)(F)F)c(Cl)cc23)C(C)C1 ) has viability, T/C equal to 108

The value of viability, T/C measured for the compound CCN1CCN(Cc2ccc(Nc3ncc(F)c(-c4cc(F)c5nc(C)n(C(C)C)c5c4)n3)nc2)CC1 + C=CC(=O)N1CCN(c2nc(OCC3CCCN3C)nc3c(F)c(-c4nc(N)cc(C)c4C(F)(F)F)c(Cl)cc23)C(C)C1 turned out to be 104

Next:
Record summary for CC(=O)OC12COC1CC(O)C1(C)C(=O)C(O)C3=C(C)C(OC(=O)C(O)C(NC(=O)OC(C)(C)C)c4ccccc4)CC(O)(C(OC(=O)c4ccccc4)C21)C3(C)C (configuration not stated) + C=CC(=O)N1CCN(c2nc(OCC3CCCN3C)nc3c(F)c(-c4nc(N)cc(C)c4C(F)(F)F)c(Cl)cc23)C(C)C1 : reported viability, T/C = 25.7

The reported value for CC1(O)CCCC1n1c(=O)c(C(F)F)cc2cnc(NC3CCN(S(C)(=O)=O)CC3)nc21 (configuration not stated) + C=CC(=O)N1CCN(c2nc(OCC3CCCN3C)nc3c(F)c(-c4nc(N)cc(C)c4C(F)(F)F)c(Cl)cc23)C(C)C1 in terms of viability, T/C is 53.3

====

# Tested on: 782815-120-R-J1-PDC complex spheroid viability
# ASSAY PROTOCOL: Anticancer human tumor 782815-120-R-J1-PDC cell line growth inhibition [RAS];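 further: spheroids exposed to compounds for 7 days before reading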;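 on viability, T/C: 100% = DMSO vehicle control viability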
# ASSAY SETUP: second compound 0.003 µM; first compound 10 µM; stronger effect = lower value
OBSERVATION TYPE: viability, T/C (%)
Reply with just the number (in %).

Worked examples, 5 molecules total:
Noted for Cc1nc(N2CCC3(CC2)COC(C)C3N)c(CO)nc1Sc1ccnc(N)c1Cl (configuration not stated) + CCn1c(-c2cc(N3CCN(C)CC3)cnc2C(C)OC)c2c3cc(ccc31)-c1csc(n1)CC(NC(=O)C1CC1C)C(=O)N1CCCC(N1)C(=O)OCC(C)(C)C2 : its viability, T/C reads 49

// viability, T/C lookup, molecule = Cc1nc(N2CCC3(CC2)COC(C)C3N)c(CO)nc1Sc1ccnc(N)c1Cl (configuration not stated) + CCn1c(-c2cccnc2C(C)OC)c2c3cc(ccc31)N1CCOC(CC(NC(=O)C(C(C)C)N(C)C(=O)C3(F)CCN(C(=O)C#CC(C)(C)N(C)C)CC3)C(=O)N3CCCC(N3)C(=O)OCC(C)(C)C2)C1 , result: 95.7

Query NC1c2ccccc2OC12CCN(c1cnc3c(N4CCCc5ncccc54)n[nH]c3n1)CC2 (configuration not stated) + CCn1c(-c2cc(N3CCN(C)CC3)cnc2C(C)OC)c2c3cc(ccc31)-c1csc(n1)CC(NC(=O)C1CC1C)C(=O)N1CCCC(N1)C(=O)OCC(C)(C)C2 yields viability, T/C of 44

Lab note: CC1(O)CCCC1n1c(=O)c(C(F)F)cc2cnc(NC3CCN(S(C)(=O)=O)CC3)nc21 (configuration not stated) + CCn1c(-c2cccnc2C(C)OC)c2c3cc(ccc31)N1CCOC(CC(NC(=O)C(C(C)C)N(C)C(=O)C3(F)CCN(C(=O)C#CC(C)(C)N(C)C)CC3)C(=O)N3CCCC(N3)C(=O)OCC(C)(C)C2)C1 gave viability, T/C of 25.2

Input CC(Nc1ccc2c(c1)OCCn1cc(N3C(=O)OCC3C(F)F)nc1-2)C(N)=O (configuration not stated) + CCn1c(-c2cc(N3CCN(C)CC3)cnc2C(C)OC)c2c3cc(ccc31)-c1csc(n1)CC(NC(=O)C1CC1C)C(=O)N1CCCC(N1)C(=O)OCC(C)(C)C2 . Output viability, T/C: 51.8

More entries:
Quick note, viability, T/C for C[C@@H](NC(=O)c1ncnc(N)c1Cl)c1ncc(C(=O)Nc2cc(C(F)(F)F)c(Cl)cn2)s1 + CCn1c(-c2cc(N3CCN(C)CC3)cnc2C(C)OC)c2c3cc(ccc31)-c1csc(n1)CC(NC(=O)C1CC1C)C(=O)N1CCCC(N1)C(=O)OCC(C)(C)C2 landed at 54.7

Lab book: viability, T/C of CC1(O)CCCC1n1c(=O)c(C(F)F)cc2cnc(NC3CCN(S(C)(=O)=O)CC3)nc21 (configuration not stated) + CCn1c(-c2cc(N3CCN(C)CC3)cnc2C(C)OC)c2c3cc(ccc31)-c1csc(n1)CC(NC(=O)C1CC1C)C(=O)N1CCCC(N1)C(=O)OCC(C)(C)C2 noted as 15.1

====

# Test system: 782815-120-R-J1-PDC complex spheroid viability
# ASSAY PROTOCOL: Anticancer human tumor 782815-120-R-J1-PDC cell line growth inhibition [RAS];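 further: spheroids exposed to compounds for 7 days before reading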;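 on viability, T/C: 100% = DMSO vehicle control viability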
# ASSAY SETUP: second compound 1 µM; first compound 0.316 µM; stronger effect = lower value
Listing of entries alongside the reported viability, T/C.
Numeric answer only, unit % assumed.

Below, each entry is followed by its recorded viability, T/C result.
viability, T/C of NC1c2ccccc2OC12CCN(c1cnc3c(N4CCCc5ncccc54)n[nH]c3n1)CC2 (configuration not stated) + C#Cc1c(F)ccc2cc(O)cc(-c3ncc4c(N5CC6CCC(C5)N6)nc(OCC56CCCN5CC(F)C6)nc4c3F)c12 , assay on 782815-120-R-J1-PDC complex spheroid viability, is 110

Test item CCC(CC)c1cc(NC2CCC(N)C2)n2nccc2n1 (configuration not stated) + C#Cc1c(F)ccc2cc(O)cc(-c3ncc4c(N5CC6CCC(C5)N6)nc(OCC56CCCN5CC(F)C6)nc4c3F)c12 ; 782815-120-R-J1-PDC complex spheroid viability; reported viability, T/C was 101

Field viability, T/C (system: 782815-120-R-J1-PDC complex spheroid viability) for entry Nc1ccn(C2OC(CO)C(O)C2(F)F)c(=O)n1 (configuration not stated) + C=CC(=O)N1CCN(c2nc(OCC3CCCN3C)nc3c(F)c(-c4nc(N)cc(C)c4C(F)(F)F)c(Cl)cc23)C(C)C1 = 29.2

// returns viability, T/C for CC(Nc1ccc2c(c1)OCCn1cc(N3C(=O)OCC3C(F)F)nc1-2)C(N)=O (configuration not stated) + C#Cc1c(F)ccc2cc(O)cc(-c3ncc4c(N5CC6CCC(C5)N6)nc(OCC56CCCN5CC(F)C6)nc4c3F)c12 with 782815-120-R-J1-PDC complex spheroid viability; value = 89

The value of viability, T/C recorded for CCN1CCN(Cc2ccc(Nc3ncc(F)c(-c4cc(F)c5nc(C)n(C(C)C)c5c4)n3)nc2)CC1 + C#Cc1c(F)ccc2cc(O)cc(-c3ncc4c(N5CC6CCC(C5)N6)nc(OCC56CCCN5CC(F)C6)nc4c3F)c12 when tested on 782815-120-R-J1-PDC complex spheroid viability reads 111

Field viability, T/C (system: 782815-120-R-J1-PDC complex spheroid viability) for entry C=CC(=O)N1CCN(c2nc(OCC3CCCN3C)nc3c(F)c(-c4nc(N)cc(C)c4C(F)(F)F)c(Cl)cc23)C(C)C1 (configuration not stated) + C#Cc1c(F)ccc2cc(O)cc(-c3ncc4c(N5CC6CCC(C5)N6)nc(OCC56CCCN5CC(F)C6)nc4c3F)c12 = 101

viability, T/C for 782815-120-R-J1-PDC complex spheroid viability with input O=C(c1ccc(F)c(F)c1Nc1ccc(I)cc1F)N1CC(O)([C@@H]2CCCCN2)C1 + C=CC(=O)N1CCN(c2nc(OCC3CCCN3C)nc3c(F)c(-c4nc(N)cc(C)c4C(F)(F)F)c(Cl)cc23)C(C)C1 equals 23.1

Measured viability, T/C (782815-120-R-J1-PDC complex spheroid viability), entry CCC(CC)c1cc(NC2CCC(N)C2)n2nccc2n1 (configuration not stated) + C=CC(=O)N1CCN(c2nc(OCC3CCCN3C)nc3c(F)c(-c4nc(N)cc(C)c4C(F)(F)F)c(Cl)cc23)C(C)C1 : 103

Continuing:
Measured viability, T/C (782815-120-R-J1-PDC complex spheroid viability), entry Cc1nc(N2CCC3(CC2)COC(C)C3N)c(CO)nc1Sc1ccnc(N)c1Cl (configuration not stated) + C#Cc1c(F)ccc2cc(O)cc(-c3ncc4c(N5CC6CCC(C5)N6)nc(OCC56CCCN5CC(F)C6)nc4c3F)c12 : 104

Observed viability, T/C, 782815-120-R-J1-PDC complex spheroid viability, Cc1nc(N2CCC3(CC2)COC(C)C3N)c(CO)nc1Sc1ccnc(N)c1Cl (configuration not stated) + C=CC(=O)N1CCN(c2nc(OCC3CCCN3C)nc3c(F)c(-c4nc(N)cc(C)c4C(F)(F)F)c(Cl)cc23)C(C)C1 : 95.8

Record NC1c2ccccc2OC12CCN(c1cnc3c(N4CCCc5ncccc54)n[nH]c3n1)CC2 (configuration not stated) + C=CC(=O)N1CCN(c2nc(OCC3CCCN3C)nc3c(F)c(-c4nc(N)cc(C)c4C(F)(F)F)c(Cl)cc23)C(C)C1 has 782815-120-R-J1-PDC complex spheroid viability viability, T/C equal to 103

Bench note, 782815-120-R-J1-PDC complex spheroid viability: C=CC(=O)Nc1cc(Nc2nccc(-c3cn(C)c4ccccc34)n2)c(OC)cc1N(C)CCN(C)C + C=CC(=O)N1CCN(c2nc(OCC3CCCN3C)nc3c(F)c(-c4nc(N)cc(C)c4C(F)(F)F)c(Cl)cc23)C(C)C1 , viability, T/C reads 93.4
